# Lookup of reported IC50 keyed by entry
Molecular target: Recombinant human FAP (Homo sapiens)
Construct: purchased R&D systems
Sequence (Q12884 whole entry): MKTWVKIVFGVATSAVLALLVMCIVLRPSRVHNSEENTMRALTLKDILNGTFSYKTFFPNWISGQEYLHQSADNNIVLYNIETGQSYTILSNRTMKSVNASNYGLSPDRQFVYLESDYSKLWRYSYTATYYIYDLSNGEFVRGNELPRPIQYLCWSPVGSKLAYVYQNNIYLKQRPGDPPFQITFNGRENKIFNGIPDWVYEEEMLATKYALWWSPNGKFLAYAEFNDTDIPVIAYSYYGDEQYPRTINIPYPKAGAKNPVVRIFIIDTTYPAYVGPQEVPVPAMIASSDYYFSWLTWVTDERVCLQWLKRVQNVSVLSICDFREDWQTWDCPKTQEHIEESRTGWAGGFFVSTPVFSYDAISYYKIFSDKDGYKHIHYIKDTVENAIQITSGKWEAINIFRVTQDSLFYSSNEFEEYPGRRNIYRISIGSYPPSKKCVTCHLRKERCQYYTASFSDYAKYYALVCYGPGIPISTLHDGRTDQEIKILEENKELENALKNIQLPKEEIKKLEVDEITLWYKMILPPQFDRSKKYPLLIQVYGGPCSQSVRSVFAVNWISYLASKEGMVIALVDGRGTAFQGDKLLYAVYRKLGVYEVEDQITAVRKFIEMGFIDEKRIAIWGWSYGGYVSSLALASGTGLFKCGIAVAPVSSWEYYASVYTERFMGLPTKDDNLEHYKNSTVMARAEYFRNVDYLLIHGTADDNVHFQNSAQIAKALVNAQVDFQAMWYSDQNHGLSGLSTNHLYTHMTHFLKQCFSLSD
Assay: FAP inhibition, fluorogenic substrate Z-Gly-Pro-AMC
Assay type: biochemical
Settings: 25° C., Z-Gly-Pro-AMC substrate
Note: unit nM is implicit; provide only the numeric part.

{"columns": ["record-smiles", "IC50 [nM]"],
 "data": [
  ["N#C[C@@H]1CCCN1C(=O)CN1CC[C@H](Nc2cccc3ccoc23)C1", 9.03],
  ["N#C[C@@H]1C[C@@H]2C[C@@H]2N1C(=O)CN1CCC(Nc2cccc3ncccc23)CC1", 5.64],
  ["Cc1cnc2cccc(NC3CCN(CC(=O)N4CCC[C@H]4C#N)CC3)c2c1", 1.84],
  ["COc1ccc2c(O[C@H]3CCN(CC(=O)N4CCC[C@H]4C#N)C3)ccnc2c1", 13.5],
  ["N#C[C@@H]1CCCN1C(=O)CN1CC[C@H](NC(=O)c2coc3ccc(F)cc23)C1", 9.94]
]}

I would be grateful if you could share the reported IC50 for N#C[C@@H]1CC(F)(F)CN1C(=O)CN1CC[C@H](Nc2cncc3ccccc23)C1 .
1.1

I would be grateful if you could share the reported IC50 for N#C[C@@H]1CC(F)(F)CN1C(=O)CN1CC[C@H](Nc2cncc3ccoc23)C1 .
0.5

I would be grateful if you could share the reported IC50 for N#C[C@@H]1CCCN1C(=O)CN1CCC(Oc2cccc3ncccc23)CC1 .
1.45

I would be grateful if you could share the reported IC50 for N#C[C@@H]1CCCN1C(=O)CN1CC[C@H](Nc2cccc3ncccc23)C1 .
1.62

I would be grateful if you could share the reported IC50 for N#C[C@@H]1CC(F)(F)CN1C(=O)CN1CC[C@H](Oc2ccnc3cc(Cl)ccc23)C1 .
3.67

I would be grateful if you could share the reported IC50 for COc1cccc2c(C(=O)N[C@H]3CCN(CC(=O)N4CCC[C@H]4C#N)C3)coc12 .
18.8

I would be grateful if you could share the reported IC50 for N#C[C@@H]1CCCN1C(=O)CN1CC[C@H](Oc2nccc3scc(Br)c23)C1 .
31.9

I would be grateful if you could share the reported IC50 for N#C[C@@H]1CCCN1C(=O)CN1CC[C@H](Oc2cccc3[nH]c(=O)ccc23)C1 .
9.84

I would be grateful if you could share the reported IC50 for N#C[C@@H]1CCCN1C(=O)CN1CC[C@H](Oc2ccnc3cc(Cl)ccc23)C1 .
17.9

I would be grateful if you could share the reported IC50 for N#C[C@@H]1CCCN1C(=O)CN1CC[C@H](Oc2cc(OCc3ccccc3)ccn2)C1 .
69.6

I would be grateful if you could share the reported IC50 for Cc1ccc2cccc(O[C@H]3CCN(CC(=O)N4CCC[C@H]4C#N)C3)c2n1 .
22.5

I would be grateful if you could share the reported IC50 for CN(c1ccc2cccnc2c1)[C@@H]1CCN(CC(=O)N2CCC[C@H]2C#N)C1 .
34.1

I would be grateful if you could share the reported IC50 for N#C[C@@H]1CCCN1C(=O)CN1CC[C@H](Oc2ccnc3c(F)c(F)ccc23)C1 .
19.9

I would be grateful if you could share the reported IC50 for N#C[C@@H]1CC(F)(F)CN1C(=O)CN1CCC(Nc2cccc3ncccc23)CC1 .
0.94

I would be grateful if you could share the reported IC50 for CN(c1ccc2ccccc2n1)[C@@H]1CCN(CC(=O)N2CCC[C@H]2C#N)C1 .
86.1

I would be grateful if you could share the reported IC50 for N#C[C@@H]1CCCN1C(=O)CN1CC[C@H](NC(=O)c2cc3ccccc3o2)C1 .
38.3

I would be grateful if you could share the reported IC50 for COc1ccc2c(OC3CCN(CC(=O)N4C[C@@H](F)C[C@H]4C#N)CC3)ccnc2c1 .
2.66

I would be grateful if you could share the reported IC50 for COc1cc2nccc(OC3CCN(CC(=O)N4C[C@@H](F)C[C@H]4C#N)CC3)c2cc1OC .
1.25

I would be grateful if you could share the reported IC50 for COc1ccc2nccc(O[C@H]3CCN(CC(=O)N4CCC[C@H]4C#N)C3)c2c1 .
1

I would be grateful if you could share the reported IC50 for N#C[C@@H]1CC(F)(F)CN1C(=O)CN1CC[C@H](Nc2cnc3ccccc3c2)C1 .
1.83

###

# Lookup of reported pIC50 keyed by entry
Biological target: recombinant human DPP9 (Homo sapiens)
Construct: purchased R&D Systems
Sequence (Q86TI2 whole entry): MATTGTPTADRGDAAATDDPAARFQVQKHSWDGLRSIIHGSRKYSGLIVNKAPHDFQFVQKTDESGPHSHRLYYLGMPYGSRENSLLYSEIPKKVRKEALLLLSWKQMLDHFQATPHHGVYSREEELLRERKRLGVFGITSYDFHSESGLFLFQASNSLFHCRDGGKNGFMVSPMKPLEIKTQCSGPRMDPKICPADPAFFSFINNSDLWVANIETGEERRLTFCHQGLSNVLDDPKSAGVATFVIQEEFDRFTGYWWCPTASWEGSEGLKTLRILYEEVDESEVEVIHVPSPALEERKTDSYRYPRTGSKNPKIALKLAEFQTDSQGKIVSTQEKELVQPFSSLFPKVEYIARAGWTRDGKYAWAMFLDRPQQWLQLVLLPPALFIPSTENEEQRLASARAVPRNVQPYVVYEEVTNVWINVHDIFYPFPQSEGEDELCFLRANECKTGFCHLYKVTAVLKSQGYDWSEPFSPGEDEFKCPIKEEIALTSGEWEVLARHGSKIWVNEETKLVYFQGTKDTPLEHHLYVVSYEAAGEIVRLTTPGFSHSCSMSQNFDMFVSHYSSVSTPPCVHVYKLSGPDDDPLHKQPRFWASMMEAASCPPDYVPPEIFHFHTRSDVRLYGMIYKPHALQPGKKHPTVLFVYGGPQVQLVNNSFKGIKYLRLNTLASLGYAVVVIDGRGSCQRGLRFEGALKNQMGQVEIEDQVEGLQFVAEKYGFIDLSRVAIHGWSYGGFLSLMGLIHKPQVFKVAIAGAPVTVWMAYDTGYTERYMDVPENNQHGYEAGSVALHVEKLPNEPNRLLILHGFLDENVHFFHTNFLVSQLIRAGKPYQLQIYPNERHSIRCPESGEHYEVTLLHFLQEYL
Experiment: DPP9 inhibition, fluorogenic substrate H-Gly-Pro-AMC
Type: biochemical
Details: recombinant human DPP9
Quick note: pIC50 values are minus log10 of concentrations in mol/L.

See these solved cases before continuing.
{"columns": ["record-smiles", "pIC50"],
 "data": [
  ["COc1cc(N[C@@H]2CCN(CC(=O)N3CCC[C@H]3C#N)C2)c2cccnc2c1", 4.83],
  ["N#Cc1cccc2c(OC3CCN(CC(=O)N4C[C@@H](F)C[C@H]4C#N)CC3)ccnc12", 5.35],
  ["N#C[C@@H]1C[C@H](F)CN1C(=O)CN1CC[C@@H](Nc2cc(C(F)(F)F)c3ncccc3c2)C1", 6.09]
]}

I would be grateful if you could share the reported pIC50 for N#C[C@@H]1CCCN1C(=O)CN1CC[C@H](Nc2cc(F)cc3ncccc23)C1 .
4.72

I would be grateful if you could share the reported pIC50 for CN(c1ccc2cnccc2c1)C1CCN(CC(=O)N2CCC[C@H]2C#N)CC1 .
4.46

I would be grateful if you could share the reported pIC50 for N#C[C@@H]1C[C@H](F)CN1C(=O)CN1CC[C@H](Nc2cnc3ccccc3c2)C1 .
5.24

I would be grateful if you could share the reported pIC50 for COc1cc(N[C@H]2CCN(CC(=O)N3CCC[C@H]3C#N)C2)c2cccnc2c1 .
4.46

I would be grateful if you could share the reported pIC50 for N#C[C@@H]1C[C@H](F)CN1C(=O)CN1CCC(Nc2ccc([N+](=O)[O-])c3cnccc23)CC1 .
6.13

I would be grateful if you could share the reported pIC50 for N#C[C@@H]1C[C@H](F)CN1C(=O)CN1CC[C@H](Nc2ccc(NC(=O)c3ccccc3)c3ncccc23)C1 .
5.51

I would be grateful if you could share the reported pIC50 for N#C[C@@H]1C[C@H](F)CN1C(=O)CN1CCC(Nc2ccnc3c(C(F)(F)F)cccc23)CC1 .
5.49

###

Target: recombinant human PREP (Homo sapiens)
Construct: purchased R&D System
Sequence (P48147 whole entry): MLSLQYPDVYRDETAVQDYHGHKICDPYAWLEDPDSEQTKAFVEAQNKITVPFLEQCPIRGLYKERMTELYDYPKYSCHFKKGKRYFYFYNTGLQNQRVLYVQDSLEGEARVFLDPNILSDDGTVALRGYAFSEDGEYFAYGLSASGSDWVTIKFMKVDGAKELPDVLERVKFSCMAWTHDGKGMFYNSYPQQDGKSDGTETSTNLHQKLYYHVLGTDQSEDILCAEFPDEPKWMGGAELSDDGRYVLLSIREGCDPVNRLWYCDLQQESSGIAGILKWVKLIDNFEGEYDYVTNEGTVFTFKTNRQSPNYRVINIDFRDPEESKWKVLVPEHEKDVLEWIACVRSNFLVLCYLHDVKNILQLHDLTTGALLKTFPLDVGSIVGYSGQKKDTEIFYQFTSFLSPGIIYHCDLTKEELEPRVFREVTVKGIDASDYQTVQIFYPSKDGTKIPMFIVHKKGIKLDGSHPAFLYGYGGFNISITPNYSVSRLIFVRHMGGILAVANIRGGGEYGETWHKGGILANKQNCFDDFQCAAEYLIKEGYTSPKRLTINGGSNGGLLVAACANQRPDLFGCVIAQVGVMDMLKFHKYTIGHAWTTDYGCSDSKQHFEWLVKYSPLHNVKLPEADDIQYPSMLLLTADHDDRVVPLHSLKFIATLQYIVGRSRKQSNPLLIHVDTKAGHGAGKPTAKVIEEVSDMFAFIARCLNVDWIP
Assay: PREP inhibition, fluorogenic substrate Z-Gly-Pro-AMC
Assay type: biochemical
Details: Inhibitory Activity (IC50, nM) PREP, 25° C., Z-Gly-Pro-AMC substrate
quantity-kind: IC50 (nM)
Note: unit nM is implicit; provide only the numeric part.

{"columns": ["compound", "measured-number"],
 "data": [
  ["N#C[C@@H]1CCCN1C(=O)CN1CC[C@H](Nc2cncc3ccccc23)C1 [Example 19]", 11800]
]}

Consider now this further compound.
Item: N#C[C@@H]1CCCN1C(=O)CN1CC[C@H](Nc2cccc3ncccc23)C1 [Example 27] Test system: recombinant human PREP (Homo sapiens) Read-out: IC50 Value: ?
12100

###

Target: recombinant human DPP8 (Homo sapiens, UniProt Q6V1X1)
Construct: purchased PBS Bioscience
Sequence (Q6V1X1 whole entry): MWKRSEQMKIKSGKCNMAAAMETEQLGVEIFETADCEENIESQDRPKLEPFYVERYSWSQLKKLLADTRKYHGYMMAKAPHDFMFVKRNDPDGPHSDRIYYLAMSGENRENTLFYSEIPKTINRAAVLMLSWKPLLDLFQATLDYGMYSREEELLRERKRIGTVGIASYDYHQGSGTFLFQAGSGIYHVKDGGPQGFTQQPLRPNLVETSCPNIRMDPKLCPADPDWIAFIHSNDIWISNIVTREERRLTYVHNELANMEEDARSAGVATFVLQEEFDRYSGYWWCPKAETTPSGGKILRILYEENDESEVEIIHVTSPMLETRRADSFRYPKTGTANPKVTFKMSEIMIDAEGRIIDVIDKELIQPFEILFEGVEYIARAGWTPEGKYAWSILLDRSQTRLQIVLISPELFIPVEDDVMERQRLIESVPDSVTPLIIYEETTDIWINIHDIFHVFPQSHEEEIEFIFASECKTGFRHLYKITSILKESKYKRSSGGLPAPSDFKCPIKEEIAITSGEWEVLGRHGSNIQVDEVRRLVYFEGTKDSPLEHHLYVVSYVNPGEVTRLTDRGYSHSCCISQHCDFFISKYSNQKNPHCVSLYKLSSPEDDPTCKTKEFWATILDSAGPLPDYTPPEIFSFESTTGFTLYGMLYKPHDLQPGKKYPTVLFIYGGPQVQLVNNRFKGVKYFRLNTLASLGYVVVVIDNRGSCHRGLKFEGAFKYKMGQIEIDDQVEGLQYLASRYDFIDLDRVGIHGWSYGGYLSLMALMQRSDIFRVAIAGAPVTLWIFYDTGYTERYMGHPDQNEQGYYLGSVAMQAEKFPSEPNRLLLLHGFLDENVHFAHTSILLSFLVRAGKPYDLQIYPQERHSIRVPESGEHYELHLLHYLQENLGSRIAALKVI
Test: DPP8 inhibition, fluorogenic substrate Z-Ala-Pro-AMC
Format: biochemical
Settings: recombinant human DPP8
# Lookup of reported log10 of IC50 keyed by entry
All values: base-10 log of IC50 in µM.

See these solved cases before continuing.
{"columns": ["record-smiles", "measured-number"],
 "data": [
  ["N#C[C@@H]1CCCN1C(=O)CN1CC[C@H](Nc2c(F)ccc3ncccc23)C1", 1.89],
  ["COc1ccc2nccc(O[C@H]3CCN(CC(=O)N4C[C@@H](F)C[C@H]4C#N)C3)c2c1", 1.12],
  ["N#C[C@@H]1C[C@H](F)CN1C(=O)CN1CCC(Nc2ccnc3ccc(Cl)cc23)CC1", 0.92],
  ["N#C[C@@H]1C[C@H](F)CN1C(=O)CN1CCC(Nc2cccc3ncc(F)cc23)CC1", 0.46],
  ["CNC(=O)c1ccc(N[C@H]2CCN(CC(=O)N3CCC[C@H]3C#N)C2)c2cccnc12", 1.30]
]}

Consider now this further compound.
I would be grateful if you could share the reported log10 of IC50 for N#C[C@@H]1C[C@H](F)CN1C(=O)CN1CC[C@H](Nc2c(F)ccc3ncccc23)C1 .
1.32

###

Molecular target: DPP4 (Homo sapiens)
Sequence (P27487 whole entry): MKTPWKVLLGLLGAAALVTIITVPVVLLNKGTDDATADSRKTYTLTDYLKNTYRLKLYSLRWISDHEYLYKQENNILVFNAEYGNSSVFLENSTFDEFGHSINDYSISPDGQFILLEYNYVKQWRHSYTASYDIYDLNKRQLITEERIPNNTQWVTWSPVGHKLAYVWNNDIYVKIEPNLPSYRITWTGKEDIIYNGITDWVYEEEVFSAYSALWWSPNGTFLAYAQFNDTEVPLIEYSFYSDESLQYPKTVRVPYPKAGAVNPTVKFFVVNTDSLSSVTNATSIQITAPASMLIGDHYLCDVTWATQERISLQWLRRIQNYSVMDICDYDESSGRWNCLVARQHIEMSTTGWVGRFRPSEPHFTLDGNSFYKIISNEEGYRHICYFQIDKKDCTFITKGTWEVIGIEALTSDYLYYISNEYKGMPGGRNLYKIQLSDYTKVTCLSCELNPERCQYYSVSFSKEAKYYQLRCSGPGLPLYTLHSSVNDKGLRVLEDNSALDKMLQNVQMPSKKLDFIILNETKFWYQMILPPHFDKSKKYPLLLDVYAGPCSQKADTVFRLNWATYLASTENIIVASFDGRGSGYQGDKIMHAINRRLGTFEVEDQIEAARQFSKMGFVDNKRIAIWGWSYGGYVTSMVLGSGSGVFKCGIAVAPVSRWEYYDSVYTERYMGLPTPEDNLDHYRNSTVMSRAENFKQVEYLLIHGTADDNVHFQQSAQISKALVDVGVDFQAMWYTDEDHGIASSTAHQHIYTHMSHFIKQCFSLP
Assay: DPP4 inhibition, fluorogenic substrate H-Gly-Pro-AMC
Format: biochemical
Parameters: purchased R&D Systems
Settings: recombinant human DPP4
# Lookup of reported IC50 keyed by entry
Note: unit µM is implicit; provide only the numeric part.

{"columns": ["compound", "IC50 (µM)"],
 "data": [
  ["N#C[C@@H]1C[C@H](F)CN1C(=O)CN1CCC(Nc2cc(C(F)(F)F)c3ncccc3c2)CC1 [Example 377]", 6.61],
  ["COc1cnc2cccc(N[C@H]3CCN(CC(=O)N4CCC[C@H]4C#N)C3)c2c1 [Example 233]", 37.8]
]}

Item: Cc1cc(N[C@H]2CCN(CC(=O)N3C[C@@H](F)C[C@H]3C#N)C2)cc2cccnc12 [Example 277] Test system: DPP4 (Homo sapiens) Read-out: IC50 Value: ?
1.04

Item: N#C[C@@H]1CCCN1C(=O)CN1CCC(NC(=O)c2cccc3cccnc23)CC1 [Example 301] Test system: DPP4 (Homo sapiens) Read-out: IC50 Value: ?
8.13
